System: DU-145
test.description: NCI tumour cell line growth inhibition, 48 h
The source made the active and inactive calls. Rule as the data show it: active = GI50 up to about 1.1 µM and inactive = higher.
Outcomes: Y = active, N = inactive

compound: CCCCCCCCCCCC(=O)N(CCCCCCCCCCC(=O)O)CC(O)C(O)C(OC1OC(CO)C(O)C(O)C1O)C(O)CO (centres undefined)
qualitative.label: N

compound: O=C(O)c1cc(N(Cc2ccccc2O)Cc2cc(O)ccc2O)ccc1O
qualitative.label: N

compound: Cn1nc(/C=C\C(=O)N2CC(CCl)c3c2cc(N)c2ccccc32)cc1/C=C/C(=O)N1CC(CCl)c2c1cc(N)c1ccccc21 (centres undefined)
qualitative.label: Y

compound: CCCCC1(NN=C2CCCCC2)C(=O)N(c2ccccc2)N(c2ccccc2)C1=O
qualitative.label: N

---

The entries below come with measured GI50 values attached.
System: ACHN
test.description: NCI tumour cell line growth inhibition, 48 h
The source made the active and inactive calls. Cut-off read from the data, not from the text of the source: active = GI50 up to about 1.1 µM and inactive = higher.

compound: [N-]=[N+]=Nc1c([N+](=O)[O-])c(=O)n(-c2ccccc2)c2ccccc12
target: ACHN
GI50: 21.7 µM (inactive)

compound: Cc1cccc(/C=N/N=C(\N)NO)n1
target: ACHN
GI50: 27.3 µM (inactive)

compound: S=C1SCC2CCCN12 (stereo unspecified)
target: ACHN
GI50: > 100 µM (inactive)

compound: COc1ccc(C2C(C(=O)c3ccccc3)=C(O)C(O)(CC(=O)c3ccccc3)N2c2ccc(OC)cc2)cc1 (stereo unspecified)
target: ACHN
GI50: 21 µM (inactive)

compound: CCOC(=O)c1[nH]cc(C)c1-c1c[nH]c2ccccc12
target: ACHN
GI50: 23 µM (inactive)

compound: CCn1c(=O)c2nc(SC)sc2n(-c2ccccc2)c1=S
target: ACHN
GI50: 43.9 µM (inactive)

---

System: RXF 393
test.description: NCI tumour cell line growth inhibition, 48 h
Active and inactive are the calls of the source. Cut-off read from the data, not from the text of the source: active = GI50 up to about 1.1 µM and inactive = higher. Where a SMILES comes first, the peptide text is derived from it. [ ]: non-standard residue; d: D form. The star is where a group is joined. Octanoyl = CCCCCCCC(=O)*; Aib = CC(C)(N)C(=O)O; tBu = CC(C)(C)*
Classes used: active, inactive

compound: CCCCCCCC(=O)NC(C)(C)C(=O)NC(COC(C)(C)C)C(=O)NC(CC(C)C)C(=O)NC(C)(C)C(=O)NC(COC(C)(C)C)C(=O)NC(COC(C)(C)C)C(=O)NC(CC(C)C)C(=O)NC(C)(C)C(=O)NC(COC(C)(C)C)C(=O)NC(C(=O)NC(CC(C)C)C(=O)OC)C(C)CC (stereo unspecified) (Octanoyl-[Aib]S(tBu)L[Aib]S(tBu)S(tBu)L[Aib]S(tBu)IL-OMe; configuration not given here)
qualitative.label: inactive

compound: CCOC(=O)N(CC)c1c(C(F)(F)F)cc(-c2ccccc2)[nH]c1=O
qualitative.label: inactive

compound: COc1cccc2c1C(=O)c1c(O)c3c(c(O)c1C2=O)C[C@@](O)(C(=O)CO)CC3OC1CC(NCCOCC(OC(C)=O)OC(C)=O)C(O)C(C)O1 (stereo partly specified)
qualitative.label: active

compound: Cc1cn(C2CC(O)C(Cn3nncc3Cn3ccc(=O)[nH]c3=O)O2)c(=O)[nH]c1=O (stereo unspecified)
qualitative.label: inactive

compound: Cc1ccc(Nc2n[nH]c(=S)s2)cc1
qualitative.label: inactive

compound: CN(C)CCNc1ccc(CO)c2oc3ccc(O)cc3c(=O)c12
qualitative.label: inactive

compound: C=CC(C)(C)N[C@@H](C(=O)N1CCC[C@H]1c1nc(-c2nc(C(=O)OCC=C(C)C)c(C)o2)c(C)o1)C(C)C
qualitative.label: inactive

compound: CSc1c(C(N)=S)c(N)nn1-c1ccccc1
qualitative.label: inactive

compound: CC(=C\c1ccccc1)/C=C(\C#N)C(N)=O
qualitative.label: inactive

compound: COC(=O)C(N)CCCC(N)C(=O)NC(C)C(=O)NC(CCC(=O)NCCCNc1ccc([N+](=O)[O-])c2[nH]c3ccccc3c(=O)c12)C(N)=O (stereo unspecified)
qualitative.label: inactive

compound: COC(=O)[C@]12CC[C@H]3CN(C(=O)OCc4ccccc4)[C@H]([C@H]31)[C@H](C(=O)OCC[Si](C)(C)C)N2S(=O)(=O)c1ccc(C)cc1
qualitative.label: inactive

compound: Cc1cc(C2(c3cc(C)c(O)c4ncccc34)OC(=O)c3ccccc32)c2cccnc2c1O
qualitative.label: active

compound: Cc1ccc(C(=O)Nc2ccc(CP(=O)(O)O)cc2)cc1NC(=O)c1cccc(N)c1
qualitative.label: inactive

compound: C=CC(Cl)(CBr)CCC(Br)=C(C)C (stereo unspecified)
qualitative.label: inactive

compound: O=c1[nH]c(=O)n(C2OC(CO)C(O)C2O)cc1OCCc1ccccc1 (stereo unspecified)
qualitative.label: inactive

compound: COc1ccc(CC(COS(=O)(=O)c2ccc(C)cc2)NS(=O)(=O)c2ccc(C)cc2)cc1 (stereo unspecified)
qualitative.label: inactive

Reference source: ChEMBL document CHEMBL1201862
